- Tested on: 327498-153-R-J2-PDC complex spheroid growth, % test/control;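 also: spheroids exposed to compound for 7 days after 3 days of growth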
- assay.remarks: Anticancer human tumor 327498-153-R-J2-PDC patient-derived uterine carcinosarcoma cell line growth inhibition [Asc]
- assay.conditions: curve of first compound; second compound 0.0316 µM
pIC50: −log10 of the molar value.
// values below are reported pIC50

molecule | value.prefix | pIC50
Cn1ncnc1[C@H]1c2n[nH]c(=O)c3cc(F)cc(c23)N[C@@H]1c1ccc(F)cc1 + CNC(C)C(=O)NC1CN(S(=O)(=O)c2cccc(S(=O)(=O)N3CCC4CCC(C(=O)NC(c5ccccc5)c5ccccc5)N4C(=O)C(NC(=O)C(C)NC)C3)c2)CCC2CCC(C(=O)NC(c3ccccc3)c3ccccc3)N2C1=O | = | 7.77
O=C(c1ccc(F)c(F)c1Nc1ccc(I)cc1F)N1CC(O)([C@@H]2CCCCN2)C1 + CNC(C)C(=O)NC1CN(S(=O)(=O)c2cccc(S(=O)(=O)N3CCC4CCC(C(=O)NC(c5ccccc5)c5ccccc5)N4C(=O)C(NC(=O)C(C)NC)C3)c2)CCC2CCC(C(=O)NC(c3ccccc3)c3ccccc3)N2C1=O | = | 6.42
COc1c(OCCCN2CCOCC2)ccc2c3n(c(=NC(=O)c4cnc(N)nc4)nc12)CCN3 + CNC(C)C(=O)NC1CN(S(=O)(=O)c2cccc(S(=O)(=O)N3CCC4CCC(C(=O)NC(c5ccccc5)c5ccccc5)N4C(=O)C(NC(=O)C(C)NC)C3)c2)CCC2CCC(C(=O)NC(c3ccccc3)c3ccccc3)N2C1=O | = | 6.84
CCN1C(C(=O)NC23CCC(C(=O)O)(CC2)CC3)C(c2cccc(Cl)c2F)C2(C(=O)Nc3cc(Cl)ccc32)C12CCCCC2 (stereo not given) + CNC(C)C(=O)NC1CN(S(=O)(=O)c2cccc(S(=O)(=O)N3CCC4CCC(C(=O)NC(c5ccccc5)c5ccccc5)N4C(=O)C(NC(=O)C(C)NC)C3)c2)CCC2CCC(C(=O)NC(c3ccccc3)c3ccccc3)N2C1=O | = | 6.82
C#Cc1c(F)ccc2cc(O)cc(-c3ncc4c(N5CC6CCC(C5)N6)nc(OCC56CCCN5CC(F)C6)nc4c3F)c12 (stereo not given) + CNC(C)C(=O)NC1CN(S(=O)(=O)c2cccc(S(=O)(=O)N3CCC4CCC(C(=O)NC(c5ccccc5)c5ccccc5)N4C(=O)C(NC(=O)C(C)NC)C3)c2)CCC2CCC(C(=O)NC(c3ccccc3)c3ccccc3)N2C1=O | < | 5.00
NC(=O)C(=Cn1cnc(-c2cc(C(F)(F)F)cc(C(F)(F)F)c2)n1)c1cncnc1 + CNC(C)C(=O)NC1CN(S(=O)(=O)c2cccc(S(=O)(=O)N3CCC4CCC(C(=O)NC(c5ccccc5)c5ccccc5)N4C(=O)C(NC(=O)C(C)NC)C3)c2)CCC2CCC(C(=O)NC(c3ccccc3)c3ccccc3)N2C1=O | = | 7.40
O=C(c1cc(Cc2n[nH]c(=O)c3ccccc23)ccc1F)N1CCN(C(=O)C2CC2)CC1 + CNC(C)C(=O)NC1CN(S(=O)(=O)c2cccc(S(=O)(=O)N3CCC4CCC(C(=O)NC(c5ccccc5)c5ccccc5)N4C(=O)C(NC(=O)C(C)NC)C3)c2)CCC2CCC(C(=O)NC(c3ccccc3)c3ccccc3)N2C1=O | = | 5.42
C=C(F)C(=O)N1CCN(c2nc(OCC3CCCN3C)nc3c2CCN(c2cccc4cccc(Cl)c24)C3)CC1CC#N (stereo not given) + CNC(C)C(=O)NC1CN(S(=O)(=O)c2cccc(S(=O)(=O)N3CCC4CCC(C(=O)NC(c5ccccc5)c5ccccc5)N4C(=O)C(NC(=O)C(C)NC)C3)c2)CCC2CCC(C(=O)NC(c3ccccc3)c3ccccc3)N2C1=O | = | 5.93
NC1CCC(NC2CC2c2ccccc2)CC1 (stereo not given) + CNC(C)C(=O)NC1CN(S(=O)(=O)c2cccc(S(=O)(=O)N3CCC4CCC(C(=O)NC(c5ccccc5)c5ccccc5)N4C(=O)C(NC(=O)C(C)NC)C3)c2)CCC2CCC(C(=O)NC(c3ccccc3)c3ccccc3)N2C1=O | < | 7.00
Cc1nc(N2CCC3(CC2)COC(C)C3N)c(CO)nc1Sc1ccnc(N)c1Cl (stereo not given) + CNC(C)C(=O)NC1CN(S(=O)(=O)c2cccc(S(=O)(=O)N3CCC4CCC(C(=O)NC(c5ccccc5)c5ccccc5)N4C(=O)C(NC(=O)C(C)NC)C3)c2)CCC2CCC(C(=O)NC(c3ccccc3)c3ccccc3)N2C1=O | = | 5.81
